Test: liver-stage malaria parasite load reduction – cell-based, known kinase inhibitor set, luminescence, hepatoma host viability (AID 624392);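 also: infected cells incubated roughly two days before readout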
Conditions: Plasmodium liver stage in hepatoma cells, luciferase luminescence, concentration not given here; stronger effect = lower value

Molecule Smiles: Nc1ccc(-c2cnc(N)c(C(=O)c3cccnc3)n2)cn1
Measure Unit: %
parasite % of control: 132
//
Molecule Smiles: O=c1[nH]c2ccccc2c2ncnc(Nc3ccc(OC(F)(F)F)cc3)c12
Measure Unit: %
parasite % of control: 119
//
Molecule Smiles: CC(C)n1cnc2c(N(C)c3ccccc3)nc(N(CCN(C)C)Cc3ccccc3)nc21
Measure Unit: %
parasite % of control: 24.1

====

Experiment: RCMB18 cell growth, single agent and combined, cisplatin and BGB IC40 combos (AID 1671462);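 also: cells exposed to compound for four days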
Details: RCMB18 medulloblastoma cells, measured here: combination with cisplatin, at 0.5 µM, stronger effect = higher value
Non-standard residues stand in square brackets, D forms with d. Residues, ends and D or L forms follow the SMILES beside them. Dolaproine = CO[C@@H]([C@@H]1CCCN1)[C@@H](C)C(=O)O; Dil = CC[C@H](C)[C@H](NC)[C@@H](CC(=O)O)OC; NMeV = CN[C@H](C(=O)O)C(C)C
Property Measured: inhibition (%)

Compound: Cc1cc(C)cc(C(=O)NOCCCCCC(=O)NO)c1
Property Measured: inhibition
Numeric Result: 22.3
//
Compound: Cc1cc(C#N)cc(C)c1Oc1nc(Nc2ccc(C#N)cc2)nc(N)c1Br
Property Measured: inhibition
Numeric Result: -23
//
Compound: COc1cccc2c1C(=O)c1c(O)c3c(c(O)c1C2=O)CC(O)(C(=O)CO)CC3OC1CC(N)C(OC2CCCCO2)C(C)O1 (configuration not stated)
Property Measured: inhibition
Numeric Result: 44.2
//
Compound: C[C@@H]1COCCN1c1cc(C2(S(C)(=O)=O)CC2)nc(-c2cccc3[nH]ccc23)n1
Property Measured: inhibition
Numeric Result: 44.8
//
Compound: C[C@H](NC(=O)c1ccccc1N=Cc1c(O)ccc2ccccc12)c1ccccc1
Property Measured: inhibition
Numeric Result: -13.6
//
Compound: CC[C@H](C)[C@@H]([C@@H](CC(=O)N1CCC[C@H]1[C@H](OC)[C@@H](C)C(=O)N[C@@H](Cc1ccccc1)C(=O)O)OC)N(C)C(=O)[C@@H](NC(=O)[C@@H](NC)C(C)C)C(C)C (H-[NMeV]V[Dil][Dolaproine]F-OH)
Property Measured: inhibition
Numeric Result: -17.8
//
Compound: O=C(CCSc1nc2ccccc2c(=O)[nH]1)NC1CCC(c2nnc(-c3ccccc3)o2)CC1 (configuration not stated)
Property Measured: inhibition
Numeric Result: 22.5
//
Compound: Cc1ccc(NC(=O)CCCCCC(=O)Nc2ccccc2N)cc1
Property Measured: inhibition
Numeric Result: 0.344
//
Compound: Nc1ncn(C2OC(CO)C(O)C2O)c(=O)n1 (configuration not stated)
Property Measured: inhibition
Numeric Result: 6.83
//
Compound: CC(C)C(=O)SCCCCCCC(=O)Nc1nc(-c2ccccc2)cs1
Property Measured: inhibition
Numeric Result: -9.58
//
Compound: CC1OC(n2cc(F)c(=O)[nH]c2=O)C(O)C1O (configuration not stated)
Property Measured: inhibition
Numeric Result: -22.5
//
Compound: C=C1C(=O)O[C@@H]2C=C(C)CCC=C(C)CC[C@@H]12
Property Measured: inhibition
Numeric Result: 15.7
//
Compound: CON=C1CN(c2nc3c(cc2F)c(=O)c(C(=O)O)cn3C2CC2)CC1CN (configuration not stated)
Property Measured: inhibition
Numeric Result: 6.35
//
Compound: N#Cc1ccc(OC2CCC(NC(=O)CCSc3nc4ccccc4c(=O)[nH]3)CC2)cc1 (configuration not stated)
Property Measured: inhibition
Numeric Result: 27.6
//
Compound: O=C1C(=Cc2cccnc2)C(=O)c2ccccc21
Property Measured: inhibition
Numeric Result: -37
//
Compound: O=c1ccn(C2CC(O)C(CO)O2)c(=O)[nH]1 (configuration not stated)
Property Measured: inhibition
Numeric Result: 9.29
//
Compound: Nc1ccn(C2CCC(CO)O2)c(=O)n1 (configuration not stated)
Property Measured: inhibition
Numeric Result: -10.2

====

Assay: viability loss with induced miR-34 in A549 – imaging, A549 dox-inducible miR-34, nuclei and caspase counts, primary screen (AID 1347080)
Conditions: A549 miR-34 inducible, Hoechst nuclei count, 48 h; measured here: total cells with miR-34 induction; stronger effect = lower value
Property Measured: cell count

Molecule: COC(=O)c1ccccc1O
Numeric Result: 10100

Molecule: CO[C@@H]1[C@@H](O[C@@H]2O[C@H](C)[C@@H](O[C@H]3C[C@@](C)(OC(=O)CC(C)C)[C@@H](O)[C@H](C)O3)[C@H](N(C)C)[C@H]2O)[C@@H](CC=O)C[C@@H](C)[C@@H](O)/C=C/C=C/C[C@@H](C)OC(=O)C[C@H]1OC(C)=O
Numeric Result: 7880

Molecule: CCc1nc(NC(=O)NC(c2ccccc2)c2ccco2)nn1C (stereo not drawn)
Numeric Result: 8500

Molecule: CC(C)(CO)c1cc2cc(NC(=O)C3(c4ccc5c(c4)OC(F)(F)O5)CC3)c(F)cc2n1CC(O)CO (stereo not drawn)
Numeric Result: 8420

Molecule: CNC1C(O)C(NC)[C@H]2O[C@@]3(O)C(=O)CC(C)O[C@H]3O[C@@H]2C1O (stereo partly drawn)
Numeric Result: 9590

Molecule: COc1cc2c(cc1OC)CC(=O)N(CCCN(C)CC1Cc3cc(OC)c(OC)cc31)CC2 (stereo not drawn)
Numeric Result: 8090

Molecule: CN(C)CCCc1cc(C(=O)Nc2ccc(-c3ccncc3)cc2)ccc1O
Numeric Result: 7450

Molecule: Cc1ccc2c(C(=O)N(C)C(C)C)cc(-c3cnc(C(C)C)nc3)nc2c1
Numeric Result: 7480

Molecule: CCCCCCCCCCCCCCCCOC[C@H](CO)OC(C)=O
Numeric Result: 5130

Molecule: CC(NC(=O)C(O)C(C)C)C(=O)NC1C(=O)N(C)CCc2ccccc21 (stereo not drawn)
Numeric Result: 7480

Molecule: Nc1nc(NCc2ccncc2)c2cn[nH]c2n1
Numeric Result: 8290

Molecule: Nc1nc(=S)c2ncn([C@@H]3O[C@H](CO)[C@@H](O)[C@H]3O)c2[nH]1
Numeric Result: 2980

Molecule: Cc1ccc([N+](=O)[O-])cc1S(=O)(=O)N(C)N=Cc1cnc2ccc(Br)cn12
Numeric Result: 837

====

cell count listing for selected compounds.
Assay: viability loss with induced miR-34 in A549 – imaging, A549 dox-inducible miR-34, nuclei and caspase counts, primary screen (AID 1347080)
Details: A549 miR-34 inducible, Hoechst nuclei count, 48 h; measured here: total cells without miR-34 induction

Compound: NC1(C(=O)NC(CCO)c2ccc(Cl)cc2)CCN(c2ncnc3[nH]ccc23)CC1 (stereo not given)
cell count: 7200
--
Compound: CCC(C)N1CCC2(CC1)N=c1c(c3c4c5c(C)c(O)c3c(O)c1=NC(=O)/C(C)=C/C=C/[C@H](C)[C@H](O)[C@@H](C)[C@@H](O)[C@@H](C)[C@H](OC(C)=O)[C@H](C)[C@@H](OC)/C=C/O[C@@](C)(O5)C4=O)N2 (stereo not given in full)
cell count: 8810
--
Compound: Cc1nc(C#Cc2ccnc(Cl)c2)c(C)n1-c1ccc(OC(F)(F)F)cc1
cell count: 6830
--
Compound: CC(C)(NS(=O)(=O)c1ccc(Oc2ccc(F)cc2)cc1)C(=O)NO
cell count: 6810
--
Compound: C=C1C(=O)OC2C1CCC(C)=CCC[C@@]1(C)OC21 (stereo not given in full)
cell count: 9040

====

Measured inhibition by item
Assay: growth inhibition, single agents and combos, LFS_MB_2R, cell-based, cisplatin combos, synergistic combos for chromothripsis tumors (AID 1671457);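 also: cells exposed to compound for four days before readout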
Details: LFS_MB_2R medulloblastoma cells, measured here: combination with cisplatin, at 0.5 µM, stronger effect = higher value

Molecule: CC(=O)C1(O)Cc2c(O)c3c(c(O)c2C(OC2CC(N)C(O)C(C)O2)C1)C(=O)c1ccccc1C3=O (stereo not given)
Measure Unit: %
inhibition: 88
--
Molecule: NC(=O)c1cccc2[nH]c(-c3ccc(C4CCCN4)cc3F)nc12 (stereo not given)
Measure Unit: %
inhibition: -12.4
--
Molecule: O=c1[nH]c(=S)[nH]c2nc(-c3ccccc3)c(-c3ccccc3)nc12
Measure Unit: %
inhibition: -6.67
--
Molecule: Cc1ccc(NC(=O)CCCCCC(=O)Nc2ccccc2N)cc1
Measure Unit: %
inhibition: -17.5
--
Molecule: CC(C)OC(=O)[C@H](C)NP(=O)(OC[C@H]1O[C@@H](n2ccc(=O)[nH]c2=O)C(C)(F)[C@@H]1O)Oc1ccccc1 (stereo not given in full)
Measure Unit: %
inhibition: -17.8

====

Assay: growth inhibition, single agents and combos, HTB85, cell-based, BGB or cisplatin IC20 combos, synergistic combos for chromothripsis tumors (AID 1671453);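 also: cells exposed for 96 hours before readout; 0% = vehicle DMSO and 100% = high DMSO killing control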
Conditions: HTB85 osteosarcoma cells, drug combinations, single agent, at 5 µM, stronger effect = higher value

Compound: COc1cccc2c1C(=O)c1c(O)c3c(c(O)c1C2=O)CC(O)(C(C)=O)CC3OC1CC(N)C(O)C(C)O1 (configuration not stated)
inhibition, %: 99.9

Compound: CCC(Sc1nnc2c3ccccc3n(CC)c2n1)C(=O)Nc1ccccc1OC (configuration not stated)
inhibition, %: 3.91

Compound: COc1ccccc1S(=O)(=O)Nc1ccc2c(c1)CN(C)C(=O)N2
inhibition, %: 32.5

Compound: O=C1N=c2ccccc2=C1c1c(O)[nH]c2ccccc12
inhibition, %: 73.7

Compound: Cn1cc(-c2cnn3c(N)c(Br)c([C@H]4CCCNC4)nc23)cn1
inhibition, %: 52.9

Compound: Cc1cc(C#N)cc(C)c1Oc1nc(Nc2ccc(C#N)cc2)nc(N)c1Br
inhibition, %: -5.74

Compound: C=C1CCC(O)CC1=CC=C1CCCC2(C)C1CCC2C(C)C=CC(C)C(C)C (configuration not stated)
inhibition, %: 12
